Origin of values: patent US20100216761A1

# procedure-details: Rat pharmacokinetics
# Type: in vivo, Sprague-Dawley rats
# study-conditions: Sprague-Dawley, in vivo, iv, 1 mg/kg, i.v. 1 mpk, mono-L-malic acid salts, read-out: VDss
assay-metric: Vd (L/kg)
Kindly provide the numeric value in L/kg only, without the unit symbol.

Req: Name the reported Vd value associated with the molecule CCC[C@@H](NC(=O)N1C(=O)C(CC)(CC)[C@@H]1Oc1ccc(C(=O)N(CC)CCN(C)C)cc1)c1ccc(C(F)(F)F)cc1
Resp: 29

----------
# procedure-details: Human liver microsome stability (Assays #1-#4)
# Type: in vitro ADME
# study-conditions: Assay #1; substrate 1 μM; protein 0.1 mg/mL; 37° C.; 30 min
assay-metric: % Left @ 30 min

The examples below pair each entry with its known result.
>  <compound>
CCC[C@@H](NC(=O)N1C(=O)C(CC)(CC)[C@@H]1Oc1ccc(C(=O)N(CC)CCN(C)C)cc1)c1ccc(OC(F)(F)F)cc1 [Example 1]

>  <% Left @ 30 min>
78%

$$$$
>  <compound>
CCC[C@@H](NC(=O)N1C(=O)C(CC)(CC)[C@@H]1Oc1ccc(C(=O)N(CC)CCN(CC)CC)cc1)c1ccc(C(F)(F)F)cc1 [Example 5]

>  <% Left @ 30 min>
31%

$$$$
>  <compound>
CCC[C@@H](NC(=O)N1C(=O)C(CC)(CC)[C@@H]1Oc1ccc(C(=O)N(CC)CCN(C)C)cc1)c1ccc(C(F)(F)F)cc1 [Example 3]

>  <% Left @ 30 min>
60%

$$$$

Req: Name the reported % Left @ 30 min value associated with the compound CCC[C@@H](NC(=O)N1C(=O)C(CC)(CC)[C@@H]1Oc1ccc(C(=O)N(C)CCN(C)C)cc1)c1ccc(C(F)(F)F)cc1 [Example 4]
Resp: 51%

----------
# procedure-details: Rat pharmacokinetics
# Format: in vivo, Sprague-Dawley rats
# study-conditions: Sprague-Dawley, in vivo, iv, 1 mg/kg
assay-metric: Vd (L/kg)
Kindly provide the numeric value in L/kg only, without the unit symbol.

>  <compound>
CCC[C@@H](NC(=O)N1C(=O)C(CC)(CC)[C@@H]1Oc1ccc(C(=O)N(CC)CCN(C)C)cc1)c1ccc(OC(F)(F)F)cc1

>  <reported>
11

$$$$

Continue with the next compound.
Req: Name the reported Vd value associated with the compound CCC[C@@H](NC(=O)N1C(=O)C(CC)(CC)[C@@H]1Oc1ccc(C(=O)N(C)CCN(C)C)cc1)c1ccc(OC)cc1 [Compound #290, reference compound]
Resp: 14.5

----------
# procedure-details: Human liver microsome stability (Assays #1-#4)
# Type: in vitro ADME
# study-conditions: human, liver microsomes; Assay #1; substrate 1 μM; protein 0.1 mg/mL; 37° C.
assay-metric: half-life at 1 μM (min)
Kindly provide the numeric value in min only, without the unit symbol.

The examples below pair each entry with its known result.
>  <given-smiles>
CCC[C@@H](NC(=O)N1C(=O)C(CC)(CC)[C@@H]1Oc1ccc(C(=O)N(CC)CCN(C)C)cc1)c1ccc(OC(F)(F)F)cc1

>  <half-life at 1 μM / min>
87

$$$$
>  <given-smiles>
CCC[C@@H](NC(=O)N1C(=O)C(CC)(CC)[C@@H]1Oc1ccc(C(=O)N(CC)CCN(C)C)cc1)c1ccc(C(F)(F)F)cc1

>  <half-life at 1 μM / min>
32

$$$$
>  <given-smiles>
CCC[C@@H](NC(=O)N1C(=O)C(CC)(CC)[C@@H]1Oc1ccc(C(=O)N(C)CCN(C)C)cc1)c1ccc(C(F)(F)F)cc1

>  <half-life at 1 μM / min>
25

$$$$

Continue with the next molecule.
Req: Name the reported half-life at 1 μM value associated with the molecule CCC[C@@H](NC(=O)N1C(=O)C(CC)(CC)[C@@H]1Oc1ccc(C(=O)N(CC)CCN(CC)CC)cc1)c1ccc(C(F)(F)F)cc1
Resp: 30
